conditions: in acetone, 313.15 K
REPORTED PROPERTY: solubility (mole fraction)
Just the number, please, no unit attached.

Q: State its solubility (mole fraction) for this molecule: `NC(=O)C[C@H](NC(=O)OCc1ccccc1)C(=O)O`
Ans: 0.00161

====

conditions: in acetone, 283.15 K
REPORTED PROPERTY: solubility (mole fraction)

Q: Give solubility (mole fraction) for the following molecule: `NC(=O)C[C@H](NC(=O)OCc1ccccc1)C(=O)O`
Ans: 0.000747

====

details: in 1,4-dioxane, 313.15 K
REPORTED PROPERTY: solubility (mole fraction)

Q: Kindly indicate its recorded solubility (mole fraction). Item: `NC(=O)C[C@H](NC(=O)OCc1ccccc1)C(=O)O`
Ans: 0.00419
